Tested on: Wolbachia pipientis
Assay: Anti-Wolbachia Cell-Based Screen
Type: functional
Set-up: scale not given: in the data most compounds retested in dose-response had high values
Conditions: 5 µM
Out of some 48,000 compounds screened, about 13,000 (27%) showed an effect of 50% or more. This is one part of the list.
reported property: Percent Effect (%)
Write it as a number; the unit % goes unstated.

Query: # return Percent Effect of c1nc2c(c(C3CC3)n1)CCN(Cc1ccoc1)CC2 (system: Wolbachia pipientis)
Result: -6.028

Query: # return Percent Effect of O=C(Cn1cnnn1)NCC1(O)CCCc2ccccc21 (configuration not stated) (system: Wolbachia pipientis)
Result: -5.769

Query: # return Percent Effect of CC(C)C(=O)NC1CCCN(C(=O)c2ccccc2O)C1 (configuration not stated) (system: Wolbachia pipientis)
Result: 105

Query: # return Percent Effect of CCCC(C)NC1CCN(c2ccc(-n3ccnc3C)cc2)CC1 (configuration not stated) (system: Wolbachia pipientis)
Result: -8.3

Query: # return Percent Effect of NC(=O)C1CCN(CCc2ccc(NCc3cscn3)cc2)CC1 (system: Wolbachia pipientis)
Result: 0.9786

Query: # return Percent Effect of CC(=O)NC1CCN(C(=O)c2cnc(COc3ccccc3)nc2O)C1 (configuration not stated) (system: Wolbachia pipientis)
Result: 1.868

Query: # return Percent Effect of CN(C)c1ncnc2c1CCN(CC1CCOCC1)CC2.O=C(O)C(F)(F)F (system: Wolbachia pipientis)
Result: -9.241

Query: # return Percent Effect of OCC1(Cc2ccc(F)cc2F)CCCN(Cc2ccncc2)C1 (configuration not stated) (system: Wolbachia pipientis)
Result: -2.33

Query: # return Percent Effect of CCc1ccc(CN2CCCC(CO)(CCOC)C2)cc1 (configuration not stated) (system: Wolbachia pipientis)
Result: -6.434

Query: # return Percent Effect of Cc1ccc(F)cc1S(=O)(=O)NCc1[nH]ncc1Br (system: Wolbachia pipientis)
Result: -6.756

Query: # return Percent Effect of CN(C)C(=O)CN1CCc2ncnc(NC3CCC3)c2CC1.O=C(O)C(F)(F)F (system: Wolbachia pipientis)
Result: 114.3

Query: # return Percent Effect of CC1CN(C)CCN1C(=O)c1ccn(-c2ccc(F)cc2)n1 (configuration not stated) (system: Wolbachia pipientis)
Result: 101.7

Query: # return Percent Effect of CN(C)C(C(=O)N1CCN(S(N)(=O)=O)CC1)c1ccccc1F (configuration not stated) (system: Wolbachia pipientis)
Result: -29.81

Query: # return Percent Effect of N[C@@H](Cc1ccccc1)c1nnc(S(=O)(=O)Cc2ccccc2)o1 (system: Wolbachia pipientis)
Result: 107.1

Query: # return Percent Effect of COc1ccc(C(=O)N2C[C@@H](C(=O)O)[C@H](c3ccccc3)C2)c(O)c1 (system: Wolbachia pipientis)
Result: 5.335

Query: # return Percent Effect of Cc1cccc(CS(=O)(=O)c2nnc(N3CCOCC3)s2)c1 (system: Wolbachia pipientis)
Result: -9.139

Query: # return Percent Effect of Cc1ccc(CN2CCOC3(CCN(C(=O)C4CC=CC4)CC3)C2)cc1.O=C(O)C(F)(F)F (system: Wolbachia pipientis)
Result: 15.78

Query: # return Percent Effect of CNCCN1C(=O)CC[C@H]2CN(c3ncc(F)cn3)CC[C@H]21 (system: Wolbachia pipientis)
Result: -2.163

Query: # return Percent Effect of O=C(O)C(F)(F)F.c1nc2c(c(NC3CCC3)n1)CCNCC2 (system: Wolbachia pipientis)
Result: -15.15

Query: # return Percent Effect of CC(C)(C)OC(=O)NCC1CCN(C(=O)c2ccccc2O)C1 (configuration not stated) (system: Wolbachia pipientis)
Result: -1.633

Query: # return Percent Effect of CC(C)C(=O)NC1CCCN(C(=O)c2cc3ccccc3cc2O)C1 (configuration not stated) (system: Wolbachia pipientis)
Result: 101.9

Query: # return Percent Effect of CC1CN(C)CCN1C(=O)c1ccc(-n2cnnc2)cc1 (configuration not stated) (system: Wolbachia pipientis)
Result: -8.678

Query: # return Percent Effect of COc1ccc(-n2ccc(C(=O)N3CCN(C)CC3C)n2)cc1 (configuration not stated) (system: Wolbachia pipientis)
Result: -4.695

Query: # return Percent Effect of CCOCCC(=O)N(Cc1ccncc1)C(C)CC (configuration not stated) (system: Wolbachia pipientis)
Result: -2.407

Query: # return Percent Effect of CN(C)c1ncnc2c1CCN(Cc1nccs1)CC2.O=C(O)C(F)(F)F (system: Wolbachia pipientis)
Result: 13.78

Query: # return Percent Effect of Cc1cc(NC(=O)N2CCN(C)CC2C)n(Cc2ccccc2)n1 (configuration not stated) (system: Wolbachia pipientis)
Result: -3.69

Query: # return Percent Effect of Cc1ccc(CN2CCc3ncnc(C4CC4)c3CC2)s1.O=C(O)C(F)(F)F (system: Wolbachia pipientis)
Result: -13.47

Query: # return Percent Effect of COc1ccc(C(=O)N2CCCC(NC(=O)C(C)C)C2)c(O)c1 (configuration not stated) (system: Wolbachia pipientis)
Result: 103.8

Query: # return Percent Effect of O=C(N[C@@H]1CCN(c2nccc3ccccc23)C[C@H]1O)c1cnccn1 (system: Wolbachia pipientis)
Result: -5.026

Query: # return Percent Effect of CCN(CC)CCCN1CCC(NC(=O)OC(C)(C)C)CC1 (system: Wolbachia pipientis)
Result: 13.41

Query: # return Percent Effect of Cc1nc(-c2ccco2)ccc1C(=O)N1CCc2nnc(N)cc2C1 (system: Wolbachia pipientis)
Result: -5.155

Query: # return Percent Effect of O=C(N[C@@H]1CN(CCc2ccc(F)cc2)C[C@H]1O)c1cscn1 (system: Wolbachia pipientis)
Result: 115.2

Query: # return Percent Effect of CC1CN(C)CCN1C(=O)c1cnn(-c2ccc(Cl)cc2)c1 (configuration not stated) (system: Wolbachia pipientis)
Result: 3.844

Query: # return Percent Effect of CCSCc1cccc(NC2CCN(C)C2=O)c1 (configuration not stated) (system: Wolbachia pipientis)
Result: -4.409

Query: # return Percent Effect of O=S(=O)(Cc1ccccc1)c1nnc(N2CCOCC2)s1 (system: Wolbachia pipientis)
Result: 4.64

Query: # return Percent Effect of CCOCc1ccccc1NC(=O)NCC(c1cnn(C)c1)N(C)C (configuration not stated) (system: Wolbachia pipientis)
Result: -8.458

Query: # return Percent Effect of Cc1[nH]ncc1CCCNC(=O)Nc1ccc(S(C)(=O)=O)nc1 (system: Wolbachia pipientis)
Result: 0.4286

Query: # return Percent Effect of Cc1cnn(-c2cncc(C(N)=O)c2)c1 (system: Wolbachia pipientis)
Result: -7.115

Query: # return Percent Effect of NC(=O)CCn1cc(CNCCCc2ccncc2)c2ccccc21 (system: Wolbachia pipientis)
Result: -11.7

Query: # return Percent Effect of Cc1oncc1C(=O)N1CC2CC1(C(=O)NCc1ccco1)C2 (system: Wolbachia pipientis)
Result: -19.28

Query: # return Percent Effect of Cc1cc(C(=O)N2C[C@H]3CC[C@@H]2CN(Cc2ccccn2)C3)nc(N)n1 (system: Wolbachia pipientis)
Result: 2.343

Query: # return Percent Effect of CCOc1cc(C)nc(N2CCN(Cc3nccn3C)CC2)n1 (system: Wolbachia pipientis)
Result: 4.632

Query: # return Percent Effect of CC1CN(C)CCN1C(=O)c1cccn1Cc1cccnc1 (configuration not stated) (system: Wolbachia pipientis)
Result: 1.342

Query: # return Percent Effect of Cc1cnn(-c2ccc(C(=O)N3CCN(C)CC3C)cc2)c1 (configuration not stated) (system: Wolbachia pipientis)
Result: -5.131

Query: # return Percent Effect of CCCc1nncn1-c1cc(OC)ccc1OC (system: Wolbachia pipientis)
Result: -4.578

Query: # return Percent Effect of N#Cc1cc(NC(=O)c2cscn2)ccc1N1CCC(O)CC1 (system: Wolbachia pipientis)
Result: -15.52

Query: # return Percent Effect of CN(C)C(=O)CN1CCc2ncnc(C3CC3)c2CC1 (system: Wolbachia pipientis)
Result: 106.4
